Catalogue of MIC readings, one per entry.
system: S. aureus Smith; test: MIC against S. aureus Smith; format: cell-based; conditions: Staphylococcus aureus; Table I; S = S. aureus Smith; inoculum size = 10^5 /ml
Return type: number; implicit unit µg/mL.

Check the records and state MIC for CC(O)[C@H]1C(=O)N2C(C(=O)[O-])=C(C[n+]3cccc(CNC=O)c3)[C@H](C)[C@H]12 (some centres unmarked) [Table I No. 11]
0.05

Supply recorded MIC for CC(O)[C@H]1C(=O)N2C(C(=O)[O-])=C(C[n+]3ccc(-c4cnco4)cc3)[C@H](C)[C@H]12 (some centres unmarked) [Table I No. 18] here.
0.025

Recall and state the measured MIC for CC(O)[C@H]1C(=O)N2C(C(=O)[O-])=C(C[n+]3ccc(N(C)C)cc3)[C@H](C)[C@H]12 (some centres unmarked) [Table I No. 22] .
0.0125

Give the value of MIC reported for the following: CSc1ccc[n+](CC2=C(C(=O)[O-])N3C(=O)[C@H](C(C)O)[C@H]3[C@H]2C)c1 (some centres unmarked) [Table I No. 26]
0.0125

Write down MIC measured for item CC(O)[C@H]1C(=O)N2C(C(=O)[O-])=C(C[n+]3ccc(N)cc3)[C@H](C)[C@H]12 (some centres unmarked) [Table I No. 20]
0.0125

* * *

tested on: S. aureus Smith; assay: MIC against S. aureus Smith; assay type: cell-based; details: Staphylococcus aureus; Table I; S = S. aureus Smith; inoculum size = 10^5 /ml
metric: MIC (µg/mL)
// units = µg/mL; emit number, no label

# compound, MIC (µg/mL)
rows = [
    ("Cc1cc[n+](CC2=C(C(=O)[O-])N3C(=O)[C@H](C(C)O)[C@H]3[C@H]2C)cc1 (stereo partly drawn) [Table I No. 6]", 0.025),
]

Fill in reported MIC for this entry: CSc1cc[n+](CC2=C(C(=O)[O-])N3C(=O)[C@H](C(C)O)[C@H]3[C@H]2C)cc1 (stereo partly drawn) [Table I No. 27]
0.025

# return recorded MIC for input CC(O)[C@H]1C(=O)N2C(C(=O)[O-])=C(C[n+]3cccc(N)c3)[C@H](C)[C@H]12 (stereo partly drawn) [Table I No. 19]
0.0125
